# system.tested: active catalytic domain of MMP 13 (UniProt P45452 104-274)
# method.description: dot blot: periplasmic extract on 50 ng catalytic domain immobilized on Hybond C-extra, anti-c-myc detection
experimental.readout: binding result

- binder: "MMP-12 P1-1 (VHH) VHH: QVQLQESGGGLVQPGGSLRLSCVASGFTFSDYPMAWVRQAPGKGLEWISVINSGGVNTSYAASVKGRFTISRDNAKNTLFLQMNSLKPEDTAVYYCAKYSLKNEQYWRGQGTQVTVSS"
  experimental.readout: "binding result"
  experimental.result: "no binding"
- binder: "MMP-12 P1-41 (VHH) VHH: QVQLQDSGGGLVRTGDSLRLSCVVFGGTISTYAMGWFRRAPGKEREFVAAIDASGGFTEYADSVRGRFRIARDNPLSAVYLQMNSLKPEDTAFYYCAADKDRDTVVRFTTTPNEYDYWGQGTQVTVSS"
  experimental.readout: "binding result"
  experimental.result: "no binding"
- binder: "MMP-12 P1-26 (VHH) VHH: QVQLQESGGGLVRAGGSLRLSCVASGRTLSKYRMGWFRQFPGKERELVAEIEWKSSSTWYRDSVKGRFTISRDNAKNTVYLRMNSLKPEDTAVYYCAAATLGEPLVKYTYWGQGTQVTVSS"
  experimental.readout: "binding result"
  experimental.result: "no binding"
- binder: "MMP-12 P1-44 (VHH) VHH: QVQLQESGGGLVQPGGSLRLSCAASGFTFNNHWLYWVRQAQGKGLEWVSAINPGGSTVYLDSVKGRFTISRGNTKNTLYLQMNSLKSEDTAVYYCTKAMAWATDWDEYDLWGQGTQVTVSS"
  experimental.readout: "binding result"
  experimental.result: "no binding"
